- Tested on: Syrian Golden Hamster
- measurement_protocol: In vivo effect on plasma lipids and glucose in Syrian Golden Hamster
- setup_conditions: normal diet + 6.0 mg/kg/day, oral, 14 days, hamster plasma
Rule: measured Total cholesterol below 90 mg/dL gets 1; anything equal to or greater than 90 mg/dL gets 0.

compound	target_system	category
CCc1c2[n+](cc3c(OC)c(OC)ccc13)CCc1cc(OC)c(OC)cc1-2	Syrian Golden Hamster	0
CC[C@H](C)C(=O)O[C@H]1C[C@@H](C)C=C2C=C[C@H](C)[C@H](CC[C@@H]3C[C@@H](O)CC(=O)O3)[C@H]21 [lovastatin, reference compound]	Syrian Golden Hamster	0
CCC1=C2c3cc(OC)c(OC)cc3CCN2C(CC(C)=O)c2c1ccc(OC)c2OC (centres unmarked) [Compound No. 37, 8-Acetonyl-13-ethyldihydropalmatine]	Syrian Golden Hamster	1
CCC1=C2c3cc(OC)c(OC)cc3CCN2Cc2c1ccc(OC)c2OC [Compound No. 46, 13-Ethyldihydropalmatine]	Syrian Golden Hamster	1
CCOc1cc2c(cc1OCC)-c1c(CC)c3ccc(OCC)c(OCC)c3c[n+]1CC2	Syrian Golden Hamster	0
